- System: M14
- assay: NCI tumour cell line growth inhibition, 48 h
Activity calls are given as the source filed them. Cut-off read from the data, not from the text of the source: active = GI50 up to about 1.1 µM and inactive = higher.
Output constraint: value belongs to True for active, False for inactive

Answered examples (5):
>  <molecule>
Cc1[nH]c2ccccc2c1-c1cc(-c2cc(-c3c(C)[nH]c4ccccc34)on2)no1

>  <answer-label>
False

$$$$
>  <molecule>
CN(C)C(=S)/N=c1\ss/c(=N\S(=O)(=O)c2ccccc2)n1C

>  <answer-label>
False

$$$$
>  <molecule>
CCOC(=O)c1cc(C(O)P2(=O)N(CC(C)(C)C)[C@@H]3CCCC[C@H]3N2CC(C)(C)C)cn1C(=O)OC(C)(C)C (stereo not given in full)

>  <answer-label>
False

$$$$
>  <molecule>
COc1cccc(NC(=O)CC(=O)N2N=C(N(CCC#N)c3ccccc3C)CC2c2ccccc2)c1 (stereo not given)

>  <answer-label>
False

$$$$
>  <molecule>
CC(C)CCCC(C)[C@H]1CCC2[C@@H]3CCC4Nc5nocc5C[C@]4(C)C3CC[C@@]21C (stereo not given in full)

>  <answer-label>
False

$$$$

Tell me the assay call for O=c1c2cc(Cl)cc(Cl)c2oc2nc3n(c(=O)c12)CCCS3 please.
False

Tell me the assay call for Nc1ncnc2c1ncn2C1OC(CSCC(F)(F)F)C(O)C1O (stereo not given) please.
False

Tell me the assay call for CC1=NN(c2nc(N)nc(C(C#N)C(=O)c3cc4c(cc3Cl)Sc3nccn3S4(=O)=O)n2)C(C)(C)C1 (stereo not given) please.
False

Tell me the assay call for O=C(Nc1ccccc1C(=O)O)C(=O)C(C(=O)c1ccccc1-c1ccccc1)C1OC(=O)c2ccccc21 (stereo not given) please.
False

Tell me the assay call for CCOc1cc(/C=N\N(C)C)cc(/C=N\N(C)C)c1O please.
False

Tell me the assay call for COC1OC(CO)C(O)C(NC(=O)N(C)N=O)C1O (stereo not given) please.
False

Tell me the assay call for COC(=O)C(=O)C(C(=O)C(=O)Nc1cc(C)ccc1C)c1nc2ccccc2nc1O (stereo not given) please.
False

Tell me the assay call for Nc1cc(Cl)ccc1SSc1ccc(Cl)cc1N please.
False

Tell me the assay call for Cc1cn([C@H]2CN(O)C[C@@H](CO)O2)c(=O)[nH]c1=O please.
False

Tell me the assay call for N#Cc1c(NC(=S)NC(=O)c2ccccc2)nc2c(c1-c1ccccc1)CCC2 please.
False

Tell me the assay call for Cc1cn(CCCCCCOC(=O)NC(CCCNC(=N)N)C(=O)O)c(=O)[nH]c1=O (stereo not given) please.
False

Tell me the assay call for Cc1cccc(-c2cc(O)c3cc(C)cnc3n2)c1 please.
True
